Hey, just so you know, these numbers are from patent US20090270394A1.

Target: Human Cav2.2 channels (Homo sapiens, UniProt Q00975)
Construct: expressed in transfected cells
Sequence (Q00975 whole entry): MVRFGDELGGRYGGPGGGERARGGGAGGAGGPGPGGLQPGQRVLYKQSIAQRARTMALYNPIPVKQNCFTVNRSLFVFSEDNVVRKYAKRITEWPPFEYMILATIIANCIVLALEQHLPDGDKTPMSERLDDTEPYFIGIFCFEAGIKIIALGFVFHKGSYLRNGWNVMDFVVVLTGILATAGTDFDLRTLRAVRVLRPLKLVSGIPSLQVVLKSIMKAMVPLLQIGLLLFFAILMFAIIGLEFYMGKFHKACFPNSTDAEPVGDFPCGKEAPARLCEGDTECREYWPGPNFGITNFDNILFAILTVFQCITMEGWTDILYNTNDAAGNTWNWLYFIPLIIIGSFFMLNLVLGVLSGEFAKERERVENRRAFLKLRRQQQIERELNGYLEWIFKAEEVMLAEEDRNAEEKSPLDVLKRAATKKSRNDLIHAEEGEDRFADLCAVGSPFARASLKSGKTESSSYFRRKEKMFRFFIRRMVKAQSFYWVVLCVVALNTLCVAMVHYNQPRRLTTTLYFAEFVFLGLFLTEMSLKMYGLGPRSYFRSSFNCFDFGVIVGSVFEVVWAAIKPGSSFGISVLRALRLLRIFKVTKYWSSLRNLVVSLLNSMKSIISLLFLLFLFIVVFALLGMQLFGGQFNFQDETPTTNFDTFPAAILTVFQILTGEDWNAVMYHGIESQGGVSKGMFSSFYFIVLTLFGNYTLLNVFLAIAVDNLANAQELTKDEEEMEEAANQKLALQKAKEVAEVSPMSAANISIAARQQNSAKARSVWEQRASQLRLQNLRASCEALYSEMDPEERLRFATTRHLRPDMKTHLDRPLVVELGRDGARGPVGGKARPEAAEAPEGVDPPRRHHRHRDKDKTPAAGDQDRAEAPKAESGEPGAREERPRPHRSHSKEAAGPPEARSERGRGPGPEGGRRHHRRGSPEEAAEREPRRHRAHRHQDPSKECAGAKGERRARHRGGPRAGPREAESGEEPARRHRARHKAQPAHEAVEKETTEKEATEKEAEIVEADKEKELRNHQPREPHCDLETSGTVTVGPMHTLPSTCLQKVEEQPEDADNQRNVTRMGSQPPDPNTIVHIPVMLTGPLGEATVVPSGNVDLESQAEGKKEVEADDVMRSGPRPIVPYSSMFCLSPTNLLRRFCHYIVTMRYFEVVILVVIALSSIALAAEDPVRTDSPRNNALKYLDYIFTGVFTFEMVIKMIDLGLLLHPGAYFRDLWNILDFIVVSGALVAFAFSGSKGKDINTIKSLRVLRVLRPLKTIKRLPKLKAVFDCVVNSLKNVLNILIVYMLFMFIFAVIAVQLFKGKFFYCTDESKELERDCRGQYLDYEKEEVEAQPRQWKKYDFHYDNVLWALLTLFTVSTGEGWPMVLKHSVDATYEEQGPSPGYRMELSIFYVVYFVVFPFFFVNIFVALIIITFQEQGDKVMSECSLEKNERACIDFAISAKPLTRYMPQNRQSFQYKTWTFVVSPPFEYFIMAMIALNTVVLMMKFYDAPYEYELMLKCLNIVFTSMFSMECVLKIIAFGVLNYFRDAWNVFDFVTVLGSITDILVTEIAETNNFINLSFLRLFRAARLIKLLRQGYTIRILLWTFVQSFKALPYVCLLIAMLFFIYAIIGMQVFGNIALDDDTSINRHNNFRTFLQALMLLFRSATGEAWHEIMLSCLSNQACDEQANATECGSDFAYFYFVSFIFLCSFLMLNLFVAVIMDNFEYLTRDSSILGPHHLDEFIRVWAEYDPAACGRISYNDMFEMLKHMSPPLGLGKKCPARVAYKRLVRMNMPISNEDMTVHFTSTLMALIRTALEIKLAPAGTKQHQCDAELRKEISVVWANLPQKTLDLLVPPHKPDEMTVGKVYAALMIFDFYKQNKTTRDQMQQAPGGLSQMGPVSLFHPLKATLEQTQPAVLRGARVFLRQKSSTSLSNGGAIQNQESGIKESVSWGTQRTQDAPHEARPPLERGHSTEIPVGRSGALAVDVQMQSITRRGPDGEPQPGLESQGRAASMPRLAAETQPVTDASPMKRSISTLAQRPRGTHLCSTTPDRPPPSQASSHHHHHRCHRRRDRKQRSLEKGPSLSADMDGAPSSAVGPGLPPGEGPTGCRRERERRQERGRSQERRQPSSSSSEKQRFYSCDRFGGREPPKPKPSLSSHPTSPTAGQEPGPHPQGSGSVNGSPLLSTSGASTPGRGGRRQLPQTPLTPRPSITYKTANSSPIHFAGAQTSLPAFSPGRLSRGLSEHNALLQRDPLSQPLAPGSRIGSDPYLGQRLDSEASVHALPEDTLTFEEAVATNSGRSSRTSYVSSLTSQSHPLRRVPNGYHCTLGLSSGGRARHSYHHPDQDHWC
Sequence (P54289 25-1103 partner): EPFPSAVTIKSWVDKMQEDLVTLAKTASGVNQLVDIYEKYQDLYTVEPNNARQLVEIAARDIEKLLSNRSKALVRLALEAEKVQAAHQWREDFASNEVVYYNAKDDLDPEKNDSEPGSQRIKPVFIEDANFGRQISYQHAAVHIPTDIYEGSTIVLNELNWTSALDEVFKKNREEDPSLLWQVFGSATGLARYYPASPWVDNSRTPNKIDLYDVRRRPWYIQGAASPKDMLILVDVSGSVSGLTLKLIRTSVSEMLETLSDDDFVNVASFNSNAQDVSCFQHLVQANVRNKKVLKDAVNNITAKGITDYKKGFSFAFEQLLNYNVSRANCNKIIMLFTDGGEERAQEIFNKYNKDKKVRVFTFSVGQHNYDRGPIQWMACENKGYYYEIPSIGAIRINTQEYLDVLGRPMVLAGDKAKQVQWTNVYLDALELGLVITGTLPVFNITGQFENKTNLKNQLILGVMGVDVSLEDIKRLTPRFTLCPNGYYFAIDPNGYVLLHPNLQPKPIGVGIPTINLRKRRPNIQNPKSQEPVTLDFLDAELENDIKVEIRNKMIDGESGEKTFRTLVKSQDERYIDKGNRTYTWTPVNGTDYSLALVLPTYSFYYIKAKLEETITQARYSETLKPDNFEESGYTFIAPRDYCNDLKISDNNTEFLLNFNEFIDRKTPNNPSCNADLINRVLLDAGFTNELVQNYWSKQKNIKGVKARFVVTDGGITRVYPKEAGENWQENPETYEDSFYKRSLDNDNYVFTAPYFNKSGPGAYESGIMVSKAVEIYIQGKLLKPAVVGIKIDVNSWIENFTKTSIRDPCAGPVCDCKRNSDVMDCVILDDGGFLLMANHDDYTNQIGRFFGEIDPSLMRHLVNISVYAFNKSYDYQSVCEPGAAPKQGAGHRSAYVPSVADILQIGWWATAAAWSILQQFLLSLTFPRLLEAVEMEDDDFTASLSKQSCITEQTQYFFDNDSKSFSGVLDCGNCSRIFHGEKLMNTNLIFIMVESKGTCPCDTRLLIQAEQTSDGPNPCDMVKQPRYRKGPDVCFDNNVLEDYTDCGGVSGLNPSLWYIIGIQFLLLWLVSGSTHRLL
Sequence (P54284 whole entry partner): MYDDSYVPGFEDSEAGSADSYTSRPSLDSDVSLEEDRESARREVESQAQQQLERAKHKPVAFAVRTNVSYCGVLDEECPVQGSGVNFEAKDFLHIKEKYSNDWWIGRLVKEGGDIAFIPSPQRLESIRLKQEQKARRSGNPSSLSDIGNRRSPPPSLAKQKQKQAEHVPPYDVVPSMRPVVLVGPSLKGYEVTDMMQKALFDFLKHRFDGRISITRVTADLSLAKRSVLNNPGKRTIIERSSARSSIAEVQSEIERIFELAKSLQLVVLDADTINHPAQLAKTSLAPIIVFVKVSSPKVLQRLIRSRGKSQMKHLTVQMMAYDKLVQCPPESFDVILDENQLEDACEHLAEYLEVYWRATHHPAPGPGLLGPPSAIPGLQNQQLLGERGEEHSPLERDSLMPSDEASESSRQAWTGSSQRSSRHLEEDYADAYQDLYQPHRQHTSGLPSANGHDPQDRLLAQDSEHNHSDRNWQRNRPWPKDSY
Experiment: Fluorescent assay for Cav2.2 channels using potassium depolarization to initiate channel opening
Format: cell-based
Conditions: 10 μM compound; read-out: Cav 2.2 Activity % Inh at 10 μM
result_type: inhibition at 10 µM (%)

a = CC(C)(C)c1cc(C(=O)NC2(C(=O)O)CCCCC2)cc(C(C)(C)C)c1 [Compound 34]
b = CC(C)(C#N)c1ccc(C(=O)NC2(C(=O)NCc3ccccc3)CCCCC2)cc1 [Compound 122]
c = Cc1cc(CNC(=O)C2(NC(=O)c3cc(C(C)(C)C)nc(C(C)(C)C)c3)CCCCC2)no1 [Compound 79]
d = COc1c(C(C)(C)C)cc(C(=O)NC2(C(=O)NCc3ccc(N(C)C)cc3)CCCCC2)cc1C(C)(C)C [Compound 84]
Sort the items above by inhibition at 10 µM, starting with the smallest value. // rank by listing labels in the order requested
d, b, a, c
(d: 25.6%, b: 45.2%, a: 68.2%, c: 97.8%)

###

Biological target: Human Cav2.2 channels (Homo sapiens, UniProt Q00975)
Assay: Fluorescent assay for Cav2.2 channels using potassium depolarization to initiate channel opening
Conditions: 30 mM K (block of open and inactivated channels); read-out: Cav 2.2 Activity IC50 at 30 mM K
Protocol: Human Cav2.2 channels were stably expressed in HEK293 cells along with alpha2-delta and beta subunits of voltage-gated calcium channels. […] Calcium influx through Cav2.2 channels is determined using a calcium sensitive fluorescent dye in combination with a fluorescent plate reader. Fluorescent changes were measured with either a VIPR (Aurora Instruments) or FLIPR (Molecular Devices) plate reader. • 1. […] Read cell plate on VIPR instrument, Excitation=480 nm, Emission=535 nm • 9. […]
pIC50: −log10 of the molar value.
result_type: pIC50

Reference set, count: 5
- CC(C)(C)c1cc(CNC2(C(=O)NCc3ccccc3)CCCCC2)cc(C(C)(C)C)c1 [Compound 57]: 6.06
- CC(C)(C)c1cc(C(=O)NC2(C(=O)NCc3cccnc3)CCCCC2)cc(C(C)(C)C)c1 [Compound 103]: 7.18
- CN1CCC(NC(=O)c2cc(C(C)(C)C)nc(C(C)(C)C)c2)(C(=O)NCc2ccccc2)CC1 [Compound 97]: 5.97
- COc1c(C(C)(C)C)cc(C(=O)NC2(C(=O)NCc3cnc(C)cn3)CCCCC2)cc1C(C)(C)C [Compound 88]: 7.85
- COc1ccc(CNC(=O)C2(NC(=O)c3cc(C(C)(C)C)c(OC)c(C(C)(C)C)c3)CCCCC2)cc1 [Compound 31]: 8.58

P = Cc1cc(CNC(=O)C2(NC(=O)c3cc(C(C)(C)C)c(O)c(C(C)(C)C)c3)CC2)no1 [Compound 116]
Q = CC(C)(C)c1cc(C(=O)NC2(C(=O)NCc3ccncc3)CCCCC2)cc(C(C)(C)C)n1 [Compound 100]
P or Q : whose pIC50 is greater? Select an item and report its label.
Q

###

Target: Human Cav2.2 channels (Homo sapiens, UniProt Q00975)
Construct: expressed in transfected cells
Assay: Fluorescent assay for Cav2.2 channels using potassium depolarization to initiate channel opening
Format: cell-based
Details: 10 μM compound; read-out: Cav 2.2 Activity % Inh at 10 μM
result_type: inhibition at 10 µM (%)

- COc1c(C(C)(C)C)cc(C(=O)NC2(C(=O)N3CCN(Cc4ccccc4)CC3)CCCCC2)cc1C(C)(C)C: 97.2
- CC(C)(C)c1cc(C(=O)NC2(C(=O)Nc3ccccn3)CC2)cc(C(C)(C)C)n1: 100
- CC(C)(C)c1cc(C(=O)NC2(C(=O)NCc3ccccc3)CCNCC2)cc(C(C)(C)C)n1: 69.5
- CC(C)(C)c1cc(C(=O)NC2(C(=O)NCc3cccc(S(C)(=O)=O)c3)CC2)cc(C(C)(C)C)c1O: 89.3
